Source: patent US20020055528A1

List of Log10GI50 values.
- Tested on: MALME-3M
- procedure summary: NCI 60 cell line screen (SRB), Melanoma
- Format: cell-based
- run conditions: Table IV (LC50, PG=−50)

molecule	assayed system	Log10GI50
CC(=O)O[C@H]1C(=O)[C@@]2(C)[C@H]([C@H](OC(=O)c3ccccc3)[C@]3(O)C[C@H](OC(=O)[C@H](O)[C@@H](NC(=O)c4ccccc4)c4ccccc4)C(C)=C1C3(C)C)[C@]1(OC(C)=O)CO[C@@H]1C[C@@H]2O [Paclitaxel, paclitaxel, reference compound]	MALME-3M	−4.11 log10M
CC1=C(C=Cc2cccc(C=CC3=C(C)C4CCC(C)C5CCC6(C)OOC45C(O3)O6)c2)OC2OC3(C)CCC4C(C)CCC1C24OO3 (centres unmarked) [VII-g]	MALME-3M	>−4.00 log10M
CC1=C(C=Cc2cccc(C=CC3=C(C)C4CCC(C)C5CCC6(C)OOC45C(O3)O6)c2)OC2OC3(C)CCC4C(C)CCC1C24OO3 (centres unmarked) [VII-h]	MALME-3M	>−4.00 log10M
CC1=C(C=Cc2cccc(C=CC3=C(C)C4CCC(C)C5CCC6(C)OOC45C(O3)O6)c2)OC2OC3(C)CCC4C(C)CCC1C24OO3 (centres unmarked) [VII-f]	MALME-3M	>−4.00 log10M
C[C@@H]1CC[C@H]2[C@@H](C)C(=O)O[C@@H]3O[C@]4(C)CC[C@@H]1[C@]32OO4	MALME-3M	>−4.00 log10M

---

List of Log10GI50 values.
- Tested on: HL-60(TB)
- procedure summary: NCI 60 cell line screen (SRB), Leukemia
- Assay type: cell-based
- run conditions: Table IV (LC50, PG=−50)
property name: Log10GI50

compound	property name	recorded result
C[C@@H]1CC[C@H]2[C@@H](C)C(=O)O[C@@H]3O[C@]4(C)CC[C@@H]1[C@]32OO4	Log10GI50	>−4.00 log10M
CC(=O)O[C@H]1C(=O)[C@@]2(C)[C@H]([C@H](OC(=O)c3ccccc3)[C@]3(O)C[C@H](OC(=O)[C@H](O)[C@@H](NC(=O)c4ccccc4)c4ccccc4)C(C)=C1C3(C)C)[C@]1(OC(C)=O)CO[C@@H]1C[C@@H]2O [Paclitaxel, paclitaxel, reference compound]	Log10GI50	>−4.53 log10M
CC1=C(C=Cc2cccc(C=CC3=C(C)C4CCC(C)C5CCC6(C)OOC45C(O3)O6)c2)OC2OC3(C)CCC4C(C)CCC1C24OO3 (centres unmarked) [VII-h]	Log10GI50	>−4.00 log10M
CC1=C(C=Cc2cccc(C=CC3=C(C)C4CCC(C)C5CCC6(C)OOC45C(O3)O6)c2)OC2OC3(C)CCC4C(C)CCC1C24OO3 (centres unmarked) [VII-f]	Log10GI50	>−4.00 log10M
CC1=C(C=Cc2cccc(C=CC3=C(C)C4CCC(C)C5CCC6(C)OOC45C(O3)O6)c2)OC2OC3(C)CCC4C(C)CCC1C24OO3 (centres unmarked) [VII-g]	Log10GI50	>−4.00 log10M

---

- Tested on: RPMI-8226
- procedure summary: NCI 60 cell line screen (SRB), Leukemia
- Assay type: cell-based
- run conditions: Table IV (LC50, PG=−50)
List of Log10GI50 values.

molecule	assayed system	Log10GI50
CC(=O)O[C@H]1C(=O)[C@@]2(C)[C@H]([C@H](OC(=O)c3ccccc3)[C@]3(O)C[C@H](OC(=O)[C@H](O)[C@@H](NC(=O)c4ccccc4)c4ccccc4)C(C)=C1C3(C)C)[C@]1(OC(C)=O)CO[C@@H]1C[C@@H]2O [Paclitaxel, paclitaxel, reference compound]	RPMI-8226	>−4.00 log10M
CC1=C(C=Cc2cccc(C=CC3=C(C)C4CCC(C)C5CCC6(C)OOC45C(O3)O6)c2)OC2OC3(C)CCC4C(C)CCC1C24OO3 (centres unmarked) [VII-h]	RPMI-8226	>−4.00 log10M
CC1=C(C=Cc2cccc(C=CC3=C(C)C4CCC(C)C5CCC6(C)OOC45C(O3)O6)c2)OC2OC3(C)CCC4C(C)CCC1C24OO3 (centres unmarked) [VII-g]	RPMI-8226	>−4.00 log10M
C[C@@H]1CC[C@H]2[C@@H](C)C(=O)O[C@@H]3O[C@]4(C)CC[C@@H]1[C@]32OO4	RPMI-8226	>−4.00 log10M
CC1=C(C=Cc2cccc(C=CC3=C(C)C4CCC(C)C5CCC6(C)OOC45C(O3)O6)c2)OC2OC3(C)CCC4C(C)CCC1C24OO3 (centres unmarked) [VII-f]	RPMI-8226	>−4.00 log10M
